assay_text: qHTS for Inhibitors of the Functional Ribonucleoprotein Complex (vRNP) of Lassa (LASV) Arenavirus: Viability assay - alamar blue signal for LASV Primary Screen (AID 1347083); also: nearly all actives have a fitted effect of over 80% in size
condition_set: cell viability, alamar blue fluorescence (LASV minigenome counter-screen); series mostly up to 57.5 µM
Results filed as inconclusive are left out. Activity calls are given as the source filed them. Calls follow the shape of the full dose curve; tested in HEK293 reporter line.
Could you please pick one outcome from this set? active, inactive

Would you please look over these solved cases?
compound	label_class
O=C(NCc1ccncc1)C12C[C@H]3C[C@@H](C1)CC(c1ccc(Cl)cc1)(C3)C2	inactive
O=C(/C=C/c1ccccc1)OCCc1ccccc1	inactive
COc1cccc2c(NCc3ccccc3)nc(-n3c(N)nc4ccccc43)nc12	inactive
CCCCCCCOC(C)=O	inactive
O=C(O)C1CN(CCCP(=O)(O)O)CCN1 (centres undefined)	inactive
Cc1nc2n(c(=O)c1CCN1CCC(c3noc4cc(F)ccc34)CC1)CCCC2O (centres undefined)	inactive

Could you kindly confirm the outcome this assay logged for O=c1c(-c2ccc(O)cc2)coc2cc(OC3OC(CO)C(O)C(O)C3O)ccc12 (centres undefined) ?
inactive

Could you kindly confirm the outcome this assay logged for `CN[C@@H]1CN(c2ccc3c(=O)c(C(=O)O)cn(-c4nccs4)c3n2)C[C@@H]1OC` ?
active

Could you kindly confirm the outcome this assay logged for NC(C(=O)O)C1ON=C(Cl)C1O (centres undefined) ?
inactive

Could you kindly confirm the outcome this assay logged for `O=C(O)C1=CCNCC1` ?
inactive

Could you kindly confirm the outcome this assay logged for `O=C1C=C(O)c2cccc(O)c2C1=O` ?
inactive

Could you kindly confirm the outcome this assay logged for O=C1NC(=O)C(Cc2ccc(O)cc2)N1 (centres undefined) ?
inactive

###

assay_text: qHTS for Inhibitors of the Functional Ribonucleoprotein Complex (vRNP) of Lymphocytic Choriomeningitis Arenaviruses (LCMV): Viability assay - alamar blue signal for LCMV Primary Screen (AID 1347085); also: nearly all actives have a fitted effect of over 80% in size
condition_set: alamar blue viability counter-screen, LCMV vRNP screen cells; series mostly up to 57.5 µM
Records with an inconclusive call do not appear. Active and inactive are the calls of the source. Calls follow the shape of the full dose curve; tested in HEK293 reporter line.
outcome_measure: outcome

Example entries begin here.
molecule	outcome
Cc1c(O[C@@H]2O[C@H](CO)[C@@H](O)[C@H](O)[C@H]2O)c(CO)c(O[C@@H]2O[C@H](CO)[C@@H](O)[C@H](O)[C@H]2O)c2c1O[C@@H](c1ccccc1)C[C@@H]2O	inactive
O=C1Cc2c([nH]c3ccc(Br)cc23)-c2ccccc2N1	inactive
COc1cc(C(=O)OC2C[C@H]3CC[C@@H](C2)N3)ccc1O (stereo not given in full)	inactive
CC=C1C2C=C(C)CC1(N)c1ccc(=O)[nH]c1C2 (stereo not given)	inactive

Need outcome, item `C=C1C[C@@]23CC[C@H]4[C@@](C)(CCC[C@@]4(C)C(=O)O)[C@@H]2CC[C@]1(O)C3`
inactive

Need outcome, item NCCC1CCCC(CCN)N1 (stereo not given)
inactive

Need outcome, item COc1cc(C2C(c3ccccc3)C(c3cc(OC)cc(=O)o3)C2c2ccccc2)oc(=O)c1 (stereo not given)
inactive

Need outcome, item `O=C(/C=C/c1ccc(O)c(O)c1)O[C@@H]1C[C@](O)(C(=O)O)C[C@@H](O)[C@H]1O`
inactive

Need outcome, item CCCC1CCCC(=O)O1 (stereo not given)
inactive

Need outcome, item `Cc1cc(=O)c2c(O)c(O)ccc2o1`
inactive

###

System: NIH3T3
assay_text: Cytotoxic Profiling of Annotated Libraries Using Quantitative High-Throughput Screening (AID 1296008); also: % is scaled to controls: 0 for no effect and ±100 for the full control effect; nearly all actives have a fitted effect of over 60% in size
condition_set: Five cell lines viability, CellTiter-Glo ATP luminescence, 48-72 h; stronger effect = lower value
Results filed as inconclusive are left out.
Below is a list of entries, each paired with its recorded max response value.
// units = %; emit number, no label

Example entries begin here.
molecule	outcome_measure	measured_number
COc1cc(N2CCN(C)CC2)ccc1N	max response	-6.74
Nc1ncnc2c1ncn2[C@@H]1O[C@@H]2COP(O)(=S)O[C@H]2[C@H]1O (stereo partly specified)	max response	4.38
C=C1C[C@]2(O)[C@@]3(C)CCC(=O)C(C)(C)C3=C(O)C(=O)[C@@]2(C)[C@@H]2C(=O)O[C@@](C)(C(=O)OC)C(=O)[C@@]12C	max response	1.84

Need max response, item O=C(CC1NCCC[C@H]1O)Cn1cnc2cc(Br)c(Cl)cc2c1=O (stereo partly specified)
-4.52

###

Below is a list of entries, each paired with its recorded activity change, negative = cytotoxicity value.
Test system: Tov112D
assay_text: Primary qHTS to identify gynecologic anti-cancer compounds using libraries of approved drugs and bioactive compounds (AID 1345084); also: % is scaled to controls: 0 for no effect and ±100 for the full control effect; nearly all actives have a fitted effect of over 55% in size
condition_set: Gynecologic cancer cell panel viability, ATPlite luminescence, 48 h; series mostly up to 57.5 µM
Inconclusive results are not listed. Active and inactive are the calls of the source. The call rests on the fitted dose curve; in most records, active means well fitted cell-killing curve with a large enough effect; inconclusive means small, poorly fitted or top-dose-only effect, or effect the other way; inactive means flat fitted curve, though single readings scatter. Where a SMILES comes first, the peptide text is derived from it. [ ]: non-standard residue; d: D form. Ala(indol-2-yl) = N[C@@H](Cc1cc2ccccc2[nH]1)C(=O)O; Aib = CC(C)(N)C(=O)O

Example entries begin here.
compound	activity change, negative = cytotoxicity
CC(C)(NC(=O)[C@@H](N)Cc1ccc(O)cc1)C(=O)N[C@@H](Cc1cc2ccccc2[nH]1)C(=O)N[C@@H](Cc1ccccc1)C(=O)O (H-Y[Aib][Ala(indol-2-yl)]F-OH)	-10.9% [at 11.6 µM] (inactive)
CO[C@H]1C[C@H](O[C@H]2CC[C@@]3(C)C(=CCC4C3CC[C@]3(C)[C@@H](C5=CC(=O)OC5)CC[C@]43O)C2)O[C@@H](C)[C@@H]1O[C@@H]1O[C@H](CO[C@@H]2O[C@H](CO)[C@@H](O)[C@H](O)[C@H]2O)[C@@H](O)[C@H](O)[C@H]1O (stereo not given in full)	-28.4% [at 11.6 µM] (inactive)
Cc1sc2c(c1C)C(c1ccc(Cl)cc1)=N[C@@H](CC(=O)Nc1ccc(O)cc1)c1nnc(C)n1-2	-20.5% [at 11.6 µM] (inactive)
C[C@H]1CC[C@@H]2[C@@H](C)[C@H]3[C@H](C[C@H]4[C@@H]5CC=C6CC(O[C@@H]7O[C@H](CO)[C@@H](O)[C@H](O[C@@H]8O[C@H](CO)[C@@H](O)[C@H](O)[C@H]8O)[C@@H]7O[C@@H]7O[C@@H](C)[C@H](O)[C@@H](O)[C@H]7O)CC[C@]6(C)[C@H]5CC[C@]34C)N2C1 (stereo not given in full)	5.33% [at 11.6 µM] (inactive)

Now let's try a different one.
Hi! What's the reported activity change, negative = cytotoxicity for C/C=C(\C)C(=O)OC1CC2C(CC=C3CC(OC4CC(OC)C(OC5CC(OC)C(OC6CC(OC)C(OC7CC(OC)C(O)C(C)O7)C(C)O6)C(C)O5)C(C)O4)CCC32C)C2(O)CCC(C(C)=O)C12C (stereo not given) on Tov112D?
-0.393% [at 11.6 µM] (inactive)

###

assay_text: qHTS for Inhibitors of the Functional Ribonucleoprotein Complex (vRNP) of Lymphocytic Choriomeningitis Arenaviruses (LCMV): Viability assay - alamar blue signal for LCMV Primary Screen (AID 1347085); also: nearly all actives have a fitted effect of over 80% in size
condition_set: alamar blue viability counter-screen, LCMV vRNP screen cells; series mostly up to 57.5 µM
Results filed as inconclusive are left out. The source made the active and inactive calls. Calls come from the whole dose curve; tested in HEK293 reporter line.
Could you please pick one outcome from this set? active, inactive

Would you please look over these solved cases?
compound	label_class
COc1cc(C(=S)N2CCOCC2)cc(OC)c1OC	inactive
COc1ccc(-c2oc3c(CC=C(C)C)c(O)cc(O)c3c(=O)c2O)cc1	active
CN1c2c(nc(N)[nH]c2=O)NCC1CNc1ccc(C(=O)NC(CCC(=O)O)C(=O)O)cc1 (centres undefined)	inactive
O=C1NC(=O)C(=Cc2ccc(-c3ccc(F)cc3O)o2)S1	inactive
O=C(O)CCC=CCC[C@@H]1[C@H](N2CCCCC2)[C@@H](O)C[C@@H]1OCc1ccc(-c2ccccc2)cc1	inactive
CO[C@H]1C[C@H](O[C@H]2[C@H](C)O[C@@H](O[C@@H]3/C(C)=C/C[C@@H]4C[C@@H](C[C@]5(C=C[C@H](C)[C@@H](C6CCCCC6)O5)O4)OC(=O)[C@@H]4C=C(C)[C@@H](O)[C@H]5OC/C(=C\C=C\[C@@H]3C)[C@]54O)C[C@@H]2OC)O[C@@H](C)[C@@H]1O	inactive
C[C@H]1[C@H](C)CC[C@]2(C)CC[C@]3(C)C(=CC(=O)C4[C@@]5(C)CC[C@H](O)C(C)(C)C5CC[C@]43C)[C@H]12 (some centres undefined)	inactive
CCC/C=C/C/C=C/C=C/C=N/NN=O	inactive

Could you kindly confirm the outcome this assay logged for `COc1cc(N)c(Cl)cc1C(=O)OCCN1CCCCC1` ?
inactive

###

assay_text: qHTS for Inhibitors of the Functional Ribonucleoprotein Complex (vRNP) of Lymphocytic Choriomeningitis Arenaviruses (LCMV): Viability assay - alamar blue signal for LCMV Primary Screen (AID 1347085); also: nearly all actives have a fitted effect of over 80% in size
condition_set: alamar blue viability counter-screen, LCMV vRNP screen cells; series mostly up to 57.5 µM
Results filed as inconclusive are left out. Calls of active or inactive are those of the source. Calls come from the whole dose curve; tested in HEK293 reporter line.
Could you please pick one outcome from this set? 1.0 = active, 0.0 = inactive

In [3]: df
Out[3]:
                                   compound  label_class
0  O=c1ccn([C@@H]2O[C@H](CO)[C@H](O)[C@@H]2F)c(=O)[nH]1          1.0
1  C=C(C)[C@@H](O)COc1c2ccoc2cc2oc(=O)ccc12          0.0
2  COc1c(C(O)CC(C)C)ccc2c1C(=O)OCc1cc(C)cc(O)c1O2 (stereo not given)          0.0
3                  COc1c(Br)cc(Br)cc1C(=O)O          0.0
4  CC(C)(F)C[C@H](N[C@@H](c1ccc(-c2ccc(S(C)(=O)=O)cc2)cc1)C(F)(F)F)C(=O)NC1(C#N)CC1          0.0

Could you kindly confirm the outcome this assay logged for `C/C(=C\COc1ccc2ccc(=O)oc2c1)CC[C@@H](O)C(C)(C)O` ?
0.0

Could you kindly confirm the outcome this assay logged for `O=c1ccc2ccc(O[C@@H]3O[C@H](CO)[C@@H](O)[C@H](O)[C@H]3O)c(O)c2o1` ?
0.0

Could you kindly confirm the outcome this assay logged for `C=C[C@](C)(O)CC[C@@H]1[C@@]2(C)CCCC(C)(C)[C@@H]2CC[C@@]1(C)O` ?
0.0

Could you kindly confirm the outcome this assay logged for `COc1cc([C@H]2Oc3cc([C@H]4Oc5cc(O)cc(O)c5C(=O)[C@H]4O)ccc3O[C@H]2CO)ccc1O` ?
0.0

Could you kindly confirm the outcome this assay logged for `O=C(CCN1CCN(C(=O)OCc2cc(Cl)cc(Cl)c2)CC1)c1ccc2[nH]c(=O)oc2c1` ?
0.0

Could you kindly confirm the outcome this assay logged for CC(O)[C@H]1CC[C@H]2[C@@H]3CC[C@H]4C[C@@H](O)CC[C@]4(C)[C@H]3C(=O)C[C@]12C (stereo not given in full) ?
0.0

Could you kindly confirm the outcome this assay logged for CCCC1CCOC(C)S1 (stereo not given) ?
0.0

Could you kindly confirm the outcome this assay logged for NCC(O)C1CCCCCCC1 (stereo not given) ?
0.0

Could you kindly confirm the outcome this assay logged for `O=C1O/C(=C\c2ccc(O)cc2)C(O)=C1c1ccc(O)cc1` ?
0.0

Could you kindly confirm the outcome this assay logged for O=C(/C=C/c1ccc(O)cc1)OCc1occc(=O)c1O[C@@H]1OC(CO)[C@@H](O)[C@H](O)[C@@H]1O (stereo not given in full) ?
0.0

Could you kindly confirm the outcome this assay logged for `CC(C=CC1=C(C)CCCC1(C)C)=CC=CC(C)=CC(=O)Nc1ccc(O)cc1` ?
1.0

Could you kindly confirm the outcome this assay logged for `COc1cc(N2CCN(C)CC2)ccc1Nc1nc(N)c(C(=O)c2c(Cl)cccc2Cl)s1` ?
0.0

Could you kindly confirm the outcome this assay logged for `COc1ccccc1N1CCN(CCN(C(=O)C2CCCCC2)c2ccccn2)CC1` ?
0.0

Could you kindly confirm the outcome this assay logged for `NC(=NCc1ccccc1)NC(=O)c1nc(Cl)c(N)nc1N` ?
0.0

Could you kindly confirm the outcome this assay logged for `Cc1cc(OCCCc2c(C(=O)O)n(Cc3cccnc3)c3c(-c4c(COc5ccc(N6CCN([S+](C)(=O)[O-])CC6)cc5)nn(C)c4C)cccc23)cc(C)c1Cl` ?
0.0
